tested on: T1, full-length beta-Catenin (Uniprot ID P35222) (Homo sapiens (Human), UniProt P35222 1-781)
T1 construct: The assay protocol says full-length beta-Catenin (Uniprot ID P35222); tags are not described; also called bCat; B-Catenin
T1 sequence: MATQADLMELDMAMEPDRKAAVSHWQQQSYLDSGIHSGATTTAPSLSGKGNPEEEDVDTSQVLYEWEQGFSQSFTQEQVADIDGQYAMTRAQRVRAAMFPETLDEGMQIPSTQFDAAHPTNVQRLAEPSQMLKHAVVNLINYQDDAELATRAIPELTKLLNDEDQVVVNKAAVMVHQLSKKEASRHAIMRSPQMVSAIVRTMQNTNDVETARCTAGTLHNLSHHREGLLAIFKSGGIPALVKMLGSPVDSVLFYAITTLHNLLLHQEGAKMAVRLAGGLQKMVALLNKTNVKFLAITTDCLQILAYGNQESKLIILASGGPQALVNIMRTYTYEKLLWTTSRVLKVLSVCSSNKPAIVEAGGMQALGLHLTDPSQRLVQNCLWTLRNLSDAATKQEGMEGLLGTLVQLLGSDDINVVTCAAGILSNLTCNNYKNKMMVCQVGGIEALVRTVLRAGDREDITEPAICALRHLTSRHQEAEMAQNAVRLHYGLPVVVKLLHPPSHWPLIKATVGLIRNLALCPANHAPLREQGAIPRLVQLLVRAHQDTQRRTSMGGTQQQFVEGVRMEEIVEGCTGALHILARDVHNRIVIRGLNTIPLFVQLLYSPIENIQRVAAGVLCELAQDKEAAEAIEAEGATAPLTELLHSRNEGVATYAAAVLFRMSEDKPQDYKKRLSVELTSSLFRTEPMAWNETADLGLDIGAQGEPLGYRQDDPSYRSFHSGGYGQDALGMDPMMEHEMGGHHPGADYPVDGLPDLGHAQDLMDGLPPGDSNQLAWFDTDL
assay method text: fluorescence polarization competition: full-length beta-catenin + 5FAM-TCF4(10-53) probe, peptide titrated
Protocol: The plate was incubated protected from light for 60 minutes at 20° C. prior to read. Reads were performed on a CLARIOstar plate reader (BMG Labtech) in duplicate, and data were fitted to a 1:1 binding model with hill slope using an in-house script. All provided concentrations are final concentrations.
Starred links: 1 amine or outer side, 2 acyl side, 3 side chain; linkers in the order of their positions; H or OH if unused. Positions of bridges follow the written chain, without caps; N, C: chain ends. Non-standard residues stand in square brackets, D forms with d. Primed or numbered codes have the meaning given here. B5(24) = 2-amino-2-(pent-4-en-1-yl)hept-6-enoic acid, 2,2-bis(4-pentenyl)glycine (stitching residue), C=CCCCC(CCCC=C)(N[*:1])C(=O)[*:2]; B5(21) = 2-amino-2-(pent-4-en-1-yl)hept-6-enoic acid, bis(4-pentenyl)glycine (stitching residue), C=CCCCC(CCCC=C)(N[*:1])C(=O)[*:2]; B5(6) = 2-amino-2-(pent-4-en-1-yl)hept-6-enoic acid (bis(4-pentenyl)glycine), stitching residue, C=CCCCC(CCCC=C)(N[*:1])C(=O)[*:2]; Phe(2-NO2) = N[C@@H](Cc1ccccc1[N+](=O)[O-])C(=O)O; Phe(2-Br) = N[C@@H](Cc1ccccc1Br)C(=O)O; Phe(2-Cl) = N[C@@H](Cc1ccccc1Cl)C(=O)O; Phe(2-OMe) = COc1ccccc1C[C@H](N)C(=O)O; Bta = N[C@@H](Cc1csc2ccccc12)C(=O)O; αAllylPro = C=CC[C@@]1(C(=O)O)CCCN1; S8 = C=CCCCCCC[C@](C)(N)C(=O)O
Quick list: EC50 per entry.
Field: numeric (nM). Do not append units.

binder: Ac-[αAllylPro]DA[B5(21)]DEAAFN[S8][Phe(2-NO2)][Bta]Q-NH2 (staple 1-4, 4-11, Stapled (stitched) peptide with non-natural residues) [I-441]
EC50 / nM: 133
//
binder: Ac-[αAllylPro]DA[B5(24)]DEAAFN[S8][Phe(2-OMe)][Bta]Q-NH2 (staple 1-4, 4-11, Stapled (stitched) peptide with non-natural residues) [I-437]
EC50 / nM: 26
//
binder: Ac-[αAllylPro]DI[B5(6)]DDAAFN[S8]F[Bta]Q-NH2 (staple 1-4, 4-11; also: staple isomer composition: later-eluting HPLC peak, Staple isomer composition: later-eluting HPLC peak) [I-468]
EC50 / nM: 27
//
binder: Ac-[αAllylPro]DA[B5(24)]DEAAFN[S8][Phe(2-Cl)][Bta]Q-NH2 (staple 1-4, 4-11, Stapled (stitched) peptide with non-natural residues) [I-435]
EC50 / nM: 70

QUERY: Determine from records and report EC50 for Ac-[αAllylPro]DA[B5(24)]DEAAFN[S8][Phe(2-Br)][Bta]Q-NH2 (staple 1-4, 4-11, Stapled (stitched) peptide with non-natural residues) [I-436]
RESULT: 56

Cited source for all entries: patent US20240116985A1
